test system: RXF 393; assay: NCI tumour cell line growth inhibition, 48 h
The source made the active and inactive calls. Rule as the data show it: active = GI50 up to about 1.1 µM and inactive = higher.
ATTRIBUTE MEASURED: GI50

| MOLECULE | VALUE MEASURED |
| --- | --- |
| C=C1CC(CC(=O)C(C)CC2CC(=C)C(=O)O2)OC1=O (stereo not given) | 18.7 µM (inactive) |
| Oc1ccc(/C=C\c2nnc(/C=C\c3ccc(O)c(O)c3)s2)cc1O | 5.16 µM (inactive) |
| CC1=CC(=O)/C(=C/NC(=S)C(N)=S)C(=O)O1 | > 100 µM (inactive) |
| COC(=O)/C(=C\c1ccco1)P(=O)(OC)OC | 24.4 µM (inactive) |

We next turn to a different molecule, shown below.
For this molecule ( `O=CC1=CCCC2(C1)OCCO2` ), measured GI50 is > 100 µM (inactive)

* * *

tested on: SK-MEL-2; test: NCI tumour cell line growth inhibition, 48 h
Active and inactive are the calls of the source. No stated cut-off is given here; in the data, active = GI50 up to about 1.1 µM and inactive = higher.
ATTRIBUTE MEASURED: GI50

| COMPOUND | GI50 |
| --- | --- |
| COC(=O)/C(=C\c1ccco1)P(=O)(OC)OC | 30.9 µM (inactive) |
| CCOC(=N)CC(=O)Nc1cccc(Cl)c1 | > 100 µM (inactive) |
| C=C1C2CC(OC(C)=O)C3(C)C(c4ccoc4)OC(=O)[C@@H](O)[C@]13OC1C[C@H](OC(C)=O)C(C)(C)[C@H](CC(=O)OC)[C@]12C (stereo not given in full) | > 100 µM (inactive) |
| Cc1ccc(NC(=O)C(=O)C2C(=O)NC(=O)NC2=O)c(C)c1 | > 100 µM (inactive) |
| [N-]=[N+]=C1C(=O)C2CC3CC1CC2C3 (stereo not given) | > 100 µM (inactive) |
| COc1cccc(NC(=O)CC(=O)N2N=C(C)C(/N=N\c3ccc(S(=O)(=O)c4ccc(/N=N/C5C(=O)N(C(=O)CC(=O)Nc6cccc(OC)c6)N=C5C)cc4)cc3)C2=O)c1 (stereo not given) | > 100 µM (inactive) |

Item: `COc1ccc(OC)c2nc3c(C(=O)NCCN(C)C)cccc3nc12` | GI50: 8.45 µM (inactive)

So, `Cc1nc(N)sc1C(=O)/C=C/c1ccc([N+](=O)[O-])cc1` ? Its GI50 was > 100 µM (inactive)

// field: GI50; key: `CCc1ccccc1NC(=O)/C(=N/O)C(C)=O` ; value = > 100 µM (inactive)

Entry `[N-]=[N+]=Nc1c(Cl)c(Cl)nc2ccccc12` — recorded GI50 = > 100 µM (inactive)

* * *

system: A549; experiment: NCI tumour cell line growth inhibition, 48 h
Calls of active or inactive are those of the source. Rule as the data show it: active = GI50 up to about 1.1 µM and inactive = higher.
ATTRIBUTE MEASURED: GI50

Measured GI50, NC(=O)C(c1ccccc1)N1CCOCC1 (configuration not stated) : > 100 µM (inactive)

Lab book: GI50 of O=C1OC(c2ccccc2)=N/C1=C/NC(CS)C(=O)O (configuration not stated) noted as > 100 µM (inactive)

For this compound ( `CCOP(=O)(CN1CCNCCN(CP(=O)(OCC)OCC)CC1)OCC` ), measured GI50 is > 100 µM (inactive)

* * *

system: SF-268; test: NCI tumour cell line growth inhibition, 48 h
Active and inactive are the calls of the source. Rule as the data show it: active = GI50 up to about 1.1 µM and inactive = higher.
ATTRIBUTE MEASURED: GI50

Worked examples, 2 compounds total:
| COMPOUND | GI50 |
| --- | --- |
| NCCSS(=O)(=O)CCN | > 100 µM (inactive) |
| CCOC(=O)C1C(=O)CC(O)(OCC)C(C(=O)OCC)C1c1ccc(OC)cc1 (stereo not drawn) | > 100 µM (inactive) |

Input `CN1CCN(C(=S)N(C(=O)c2ccc(Cl)cc2)C2CCCCC2)CC1` . Output GI50: > 100 µM (inactive)

Lookup result for C1CCN2CC3CCCN4CCCC(C2C1)C34 (stereo not drawn) ; measured GI50: > 100 µM (inactive)

GI50 recorded for this compound, `COc1ccc(C(=O)NCCN(C)C)c2nc3ccccc3cc12` , is 1.58 µM (inactive)

The recorded GI50 for entry C[C@@H](NC(C#N)c1ccco1)c1ccccc1 (stereo partly drawn) equals > 100 µM (inactive)

Short answer for `CN(C)CCNC(=O)c1nc([N+](=O)[O-])cn1C` : GI50 was > 100 µM (inactive)

compound O=C(CC(O)(C(F)(F)F)C(F)(F)Cl)CC(O)(C(F)(F)F)C(F)(F)Cl (stereo not drawn) , GI50 observed: 2.31 µM (inactive)
